- MEASUREMENT PROTOCOL: Therapeutic index, ratio of HC50 for human RBC to MIC for Bacillus subtilis DSM 347
- Assay type: toxicity
- MEASUREMENT CONDITIONS: human red blood cells versus Bacillus subtilis DSM 347
RECORDED ENDPOINT: selectivity ratio
Keep the answer to the number alone.

GET /values?readout=selectivity ratio&item= CC(C)[C@@H]1NC(=O)C2=CC3=C4CCCC4=C4C=C(S[C@]4(C)[C@@]3(C)S2)C(=O)[C@H]2CCCN2C(=O)[C@H](C(C)C)NC(=O)[C@H](CCCN)NC(=O)[C@H]([C@H](O)C(C)C)NC(=O)[C@@H]2CCCN2C(=O)[C@@H](Cc2ccccc2)NC(=O)[C@H](C(C)C)NC(=O)[C@H](CCCN)NC1=O
21.3

Try the molecule CCCCN1C(=O)[C@@H](Cc2ccccc2)NC(=O)[C@H](CC(C)C)NC(=O)[C@H](CCCN)NC(=O)[C@H]([C@@H](C)CC)NC(=O)C2=CC3=C4CCCC4=C4C=C(S[C@]4(C)[C@@]3(C)S2)C(=O)[C@H]2CCCN2C(=O)[C@H](CC(C)C)NC(=O)[C@H](CCCN)NC(=O)[C@H]([C@@H](C)CC)NC(=O)[C@@H]1CC(C)C
13

----------
- MEASUREMENT PROTOCOL: Hemolytic activity against human RBC assessed as hemolysis after 30 mins by colorimetric method
- Format: ADME, cell-based, Erythrocyte
- MEASUREMENT CONDITIONS: human red blood cells (erythrocytes)
RECORDED ENDPOINT: HC50 at 0.5 h (µM)
Give the value in µM but do not write µM after it.

GET /values?readout=HC50 at 0.5 h&item= CC(C)NC(=O)C[C@@H]1NC(=O)C2=CC3=C4CCCC4=C4C=C(S[C@]4(C)[C@@]3(C)S2)C(=O)[C@H]2CCCN2C(=O)[C@H](C(C)C)NC(=O)[C@H](CCCN)NC(=O)[C@H](C(C)C)NC(=O)[C@@H]2CCCN2C(=O)[C@@H](Cc2ccccc2)NC(=O)[C@H](C(C)C)NC(=O)[C@H](CCCN)NC1=O
391

Try the compound C[C@@H](O)[C@@H]1NC(=O)[C@H](C23CC4CC(CC(C4)C2)C3)NC(=O)[C@H](CCCN)NC(=O)[C@@H]2CCCN2C(=O)[C@@H](Cc2ccccc2)NC(=O)[C@H](CCCN)NC(=O)[C@H](C23CC4CC(CC(C4)C2)C3)NC(=O)[C@H](CCCN)NC(=O)C2=CC3=C4CCCC4=C4C=C(S[C@]4(C)[C@@]3(C)S2)C(=O)[C@H]2CCCN2C1=O
13

Try the compound CC(C)[C@@H]1NC(=O)C2=CC3=C4CCCC4=C4C=C(S[C@]4(C)[C@@]3(C)S2)C(=O)[C@H]2CCCN2C(=O)[C@H](C(C)C)NC(=O)[C@H](CCCN)NC(=O)[C@H]([C@H](O)C(C)C)NC(=O)[C@@H]2CCCN2C(=O)[C@@H](Cc2ccccc2)NC(=O)[C@H](C(C)C)NC(=O)[C@H](CCCN)NC1=O
200

Try the compound Cc1sc2cc1C1=C(CCC1)c1cc(sc1C)C(=O)[C@H]1CCCN1C(=O)[C@H](C(C)C)NC(=O)[C@H](CCCN)N(C)C(=O)[C@H](C(C)C)NC(=O)[C@@H]1CCCN1C(=O)[C@@H](Cc1ccccc1)N(C)C(=O)[C@H](C(C)C)NC(=O)[C@H](CCCN)NC(=O)[C@H](C(C)C)NC2=O
59

Try the compound CC(C)C[C@@H]1NC(=O)[C@H](CCCCN)NC(=O)[C@H](C(C)C)NC(=O)C2=CC3=C4CCCC4=C4C=C(S[C@]4(C)[C@@]3(C)S2)C(=O)[C@H]2CCCN2C(=O)[C@H](CC(C)C)NC(=O)[C@H](CCCCN)NC(=O)[C@H](C(C)C)NC(=O)[C@H](CCCCN)NC(=O)[C@H](CC(C)C)NC(=O)[C@H](CCCCN)N(C)C(=O)[C@@H](Cc2ccccc2)NC(=O)[C@H](C(C)C)NC(=O)[C@H](CCCCN)NC1=O
9

Try the compound CC(C)C[C@@H]1NC(=O)[C@H](CCCN)NC(=O)[C@H](C)NC(=O)C2=CC3=C4CCCC4=C4C=C(S[C@]4(C)[C@@]3(C)S2)C(=O)[C@H]2CCCN2C(=O)[C@H](C)NC(=O)[C@H](CCCN)NC(=O)[C@H](C(C)C)NC(=O)[C@@H]2CCCN2C(=O)[C@@H](Cc2ccccc2)NC1=O
175

Try the compound Cc1sc2cc1C1=C(CCC1)c1cc(sc1C)C(=O)[C@H]1CCCN1C(=O)[C@H](CC(C)C)NC(=O)[C@H](CCCCN)NC(=O)[C@H](C(C)C)NC(=O)[C@H](CCCCN)N(C)C(=O)[C@@H](Cc1ccccc1)NC(=O)[C@H](CC(C)C)NC(=O)[C@H](CCCCN)NC(=O)[C@H](C(C)C)NC2=O
4

Try the compound Cc1sc2cc1C1=C(CCC1)c1cc(sc1C)C(=O)[C@H]1CCCN1C(=O)[C@H](C(C)C)NC(=O)[C@H](CCCCN)NC(=O)[C@H](CC(C)C)NC(=O)[C@H](CCCCN)NC(=O)[C@@H]1CCCN1C(=O)[C@@H](Cc1ccccc1)NC(=O)[C@H](CCCCN)NC(=O)[C@H](C(C)C)NC(=O)[C@H](CCCCN)NC(=O)[C@H](CC(C)C)NC2=O
82

----------
- MEASUREMENT PROTOCOL: Therapeutic index, ratio of HC50 for human RBC to MIC for Escherichia coli DSM 1103
- Format: toxicity
- MEASUREMENT CONDITIONS: human red blood cells versus Escherichia coli DSM 1103
RECORDED ENDPOINT: selectivity ratio
Keep the answer to the number alone.

GET /values?readout=selectivity ratio&item= Cc1sc2cc1C1=C(CCC1)c1cc(sc1C)C(=O)[C@H]1CCCN1C(=O)[C@H](C(C)C)NC(=O)[C@H](CCCN)NC(=O)[C@H](C(C)C)NC(=O)[C@@H]1CCCN1C(=O)[C@@H](Cc1ccccc1)NC(=O)[C@H](C(C)C)NC(=O)[C@H](CCCN)NC(=O)[C@H]([C@H](O)C(C)C)NC2=O
0.6

Try the compound Cc1sc2cc1C1=C(CCC1)c1cc(sc1C)C(=O)[C@H]1CCCN1C(=O)[C@H](CCCCN)NC(=O)[C@H](CC(C)C)NC(=O)[C@H](CCCCN)NC(=O)[C@H](C(C)C)NC(=O)[C@@H]1CCCN1C(=O)[C@@H](Cc1ccccc1)NC(=O)[C@H](CC(C)C)NC(=O)[C@H](CCCCN)NC(=O)[C@H](C(C)C)NC(=O)[C@H](CCCCN)NC2=O
0.2

Try the compound Cc1sc2cc1C1=C(CCC1)c1cc(sc1C)C(=O)[C@H]1CCCN1C(=O)[C@H](C(C)C)NC(=O)[C@H](CCCCN)NC(=O)[C@H](CC(C)C)NC(=O)[C@H](CCCCN)NC(=O)[C@@H]1CCCN1C(=O)[C@@H](Cc1ccccc1)NC(=O)[C@H](CCCCN)NC(=O)[C@H](C(C)C)NC(=O)[C@H](CCCCN)NC(=O)[C@H](CC(C)C)NC2=O
2

Try the compound Cc1sc2cc1C1=C(CCC1)c1cc(sc1C)C(=O)[C@H]1CCCN1C(=O)[C@H]([C@H](O)C(C)C)NC(=O)[C@H](CCCN)NC(=O)[C@H](C(C)C)NC(=O)[C@@H]1CCCN1C(=O)[C@@H](Cc1ccccc1)NC(=O)[C@H](C(C)C)NC(=O)[C@H](CCCN)NC(=O)[C@H](C(C)C)NC2=O
0.4

----------
- MEASUREMENT PROTOCOL: Therapeutic index, ratio of HC50 for human RBC to MIC for Bacillus subtilis DSM 347
- Type: toxicity
- MEASUREMENT CONDITIONS: human red blood cells versus Bacillus subtilis DSM 347
Provide the recorded selectivity ratio for the entries that follow.
Keep the answer to the number alone.

GET /values?readout=selectivity ratio&item= CC(C)[C@@H]1NC(=O)C2=CC3=C4CCCC4=C4C=C(S[C@]4(C)[C@@]3(C)S2)C(=O)[C@H]2CCCN2C(=O)[C@H](C(C)C)NC(=O)[C@H](CCCN)N(C)C(=O)[C@H](C(C)C)NC(=O)[C@@H]2CCCN2C(=O)[C@@H](Cc2ccccc2)N(C)C(=O)[C@H](C(C)C)NC(=O)[C@H](CCCN)NC1=O
32

Try the molecule CC(C)NC(=O)C[C@@H]1NC(=O)C2=CC3=C4CCCC4=C4C=C(S[C@]4(C)[C@@]3(C)S2)C(=O)[C@H]2CCCN2C(=O)[C@H](C(C)C)NC(=O)[C@H](CCCN)NC(=O)[C@H](C(C)C)NC(=O)[C@@H]2CCCN2C(=O)[C@@H](Cc2ccccc2)NC(=O)[C@H](C(C)C)NC(=O)[C@H](CCCN)NC1=O
7.8

Try the molecule CC(C)C[C@@H]1NC(=O)[C@H](CCCN)NC(=O)[C@H](C)NC(=O)C2=CC3=C4CCCC4=C4C=C(S[C@]4(C)[C@@]3(C)S2)C(=O)[C@H]2CCCN2C(=O)[C@H](C)NC(=O)[C@H](CCCN)NC(=O)[C@H](C(C)C)NC(=O)[C@@H]2CCCN2C(=O)[C@@H](Cc2ccccc2)NC1=O
4.4

Try the molecule CC(C)C[C@@H]1NC(=O)[C@H](CCCN)NC(=O)[C@H](C(C)C)NC(=O)C2=CC3=C4CCCC4=C4C=C(S[C@]4(C)[C@@]3(C)S2)C(=O)[C@H]2CCCN2C(=O)[C@H](C)NC(=O)[C@H](CCCN)NC(=O)[C@H](C(C)C)NC(=O)[C@@H]2CCCN2C(=O)[C@@H](Cc2ccccc2)NC1=O
3.5

Try the molecule Cc1sc2cc1C1=C(CCC1)c1cc(sc1C)C(=O)[C@H]1CCCN1C(=O)[C@H](C(C)C)NC(=O)[C@H](CCCN)N(C)C(=O)[C@H](C(C)C)NC(=O)[C@@H]1CCCN1C(=O)[C@@H](Cc1ccccc1)N(C)C(=O)[C@H](C(C)C)NC(=O)[C@H](CCCN)NC(=O)[C@H](C(C)C)NC2=O
29.5
